System: hCB1R (Homo sapiens)
Construct: host or cells: CHO
Sequence (P21554 whole entry): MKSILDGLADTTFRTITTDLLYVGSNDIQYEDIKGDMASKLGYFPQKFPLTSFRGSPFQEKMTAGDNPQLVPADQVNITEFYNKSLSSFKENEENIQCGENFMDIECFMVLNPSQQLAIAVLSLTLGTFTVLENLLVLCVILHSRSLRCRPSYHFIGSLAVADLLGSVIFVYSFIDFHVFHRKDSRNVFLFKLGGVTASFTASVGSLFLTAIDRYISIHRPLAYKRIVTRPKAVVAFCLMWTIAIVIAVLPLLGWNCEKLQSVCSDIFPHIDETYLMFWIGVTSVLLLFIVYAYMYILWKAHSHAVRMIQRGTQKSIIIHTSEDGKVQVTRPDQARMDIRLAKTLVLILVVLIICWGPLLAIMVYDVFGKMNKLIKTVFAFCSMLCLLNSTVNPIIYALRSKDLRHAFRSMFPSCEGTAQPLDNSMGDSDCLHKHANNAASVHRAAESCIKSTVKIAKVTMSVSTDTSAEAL
Measurement Protocol: cell-based
Assay type: cell-based
Measurement Name: EC50

Task: Value lookup for EC50; key = CCCCCCC(C)(C)c1cc(OC)c([C@@H]2C=C(CO)[C@@H]3C[C@H]2C3(C)C)c(OC)c1
Result: > 10 µM

###

Would you mind telling me the reported Emax of each entry?
System: mCB2R (Mus musculus, UniProt P47936)
Sequence (P47936 whole entry): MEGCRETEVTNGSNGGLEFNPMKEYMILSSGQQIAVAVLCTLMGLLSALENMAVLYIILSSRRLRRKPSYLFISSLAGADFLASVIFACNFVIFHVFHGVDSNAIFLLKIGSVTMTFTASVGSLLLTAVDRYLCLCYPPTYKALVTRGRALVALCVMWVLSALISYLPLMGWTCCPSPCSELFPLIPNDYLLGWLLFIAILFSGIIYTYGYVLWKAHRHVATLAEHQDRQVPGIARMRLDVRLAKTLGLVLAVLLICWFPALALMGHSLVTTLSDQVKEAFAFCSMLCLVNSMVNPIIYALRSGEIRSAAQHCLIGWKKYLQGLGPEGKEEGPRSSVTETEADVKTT
Measurement Protocol: biochemical
Format: biochemical
Parameters: from tissue; host or cells: spleen of male C57BL/6J mice
Condition Summary: read-out: Emax cAMP mCB2R
Answers are plain numbers, in %.

Reference set, count: 4
>>> print(df.to_string())
                                   molecule  test_result
0  CCCCCCC(C)(C)c1cc(O)c2c(c1)OC(C)(C)[C@@H]1CC=C(CO)C[C@@H]21 [HU210]           68
1  CCCCC/C=C\C/C=C\C/C=C\C/C=C\CCCC(=O)OC(CO)CO [2-AG, 2-arachidonoyl glycerol]           53
2  CCCCCCC(C)(C)c1ccc([C@@H]2C[C@H](O)CC[C@H]2CCCO)c(O)c1 [CP55940]          100
3  CCCCC/C=C\C/C=C\C/C=C\C/C=C\CCCC(=O)NCCO [Anandamide, N-arachidonoylethanolamine]           48

Moving on to another molecule below.
Task: Value lookup for Emax; key = CCCCCCC(C)(C)c1cc(OC)c([C@@H]2C=C(CO)[C@@H]3C[C@H]2C3(C)C)c(OC)c1 [HU308]
Result: 56
